System: soybean plant
Assay: Test Example 4: phytotoxicity to upland crop plants, treatment after emergence
Assay type: in vivo
Conditions: dosage 5 kg/ha, sprayed after emergence, judged 14 days after treatment
Assign Phytotoxicity So to each entry below.

Use these answered entries as a reference point.
| compound | tgt | value reported |
| --- | --- | --- |
| CCNC(=O)c1nc2ncccc2cc1C(=O)Nc1c(CC)ccc(Cl)c1CC | soybean plant | 3 (Crop-killing rate is 70-89%.) |
| CCNC(=O)c1nc2ccccc2cc1C(=O)Nc1c(CC)ccc(Cl)c1CC | soybean plant | 4 (Crop-killing rate is 90-99%.) |
| CCCNC(=O)c1nc2ccc(O)cc2cc1C(=O)Nc1c(CC)ccc(Cl)c1CC | soybean plant | 2 (Crop-killing rate is 40-69%.) |
| CCCNC(=O)c1nc2c(ccn2C)cc1C(=O)Nc1c(CC)ccc(Cl)c1CC | soybean plant | 4 (Crop-killing rate is 90-99%.) |

Please supply Phytotoxicity So for each of the following items, keeping them in order.
1. CCCNC(=O)c1nc2ncn(C)c2cc1C(=O)Nc1c(CC)ccc(Cl)c1CC
2. CCCNC(=O)c1nc2c(cc1C(=O)Nc1c(CC)ccc(Cl)c1CC)OCCC2
3. CCCNC(=O)c1nc2scc(Br)c2cc1C(=O)Nc1c(CC)ccc(Cl)c1CC
4. CCCNC(=O)c1nc2ncccc2cc1C(=O)Nc1c(CC)ccc(Cl)c1CC

Completion:
5 (Crop-killing rate is 100%.)
4 (Crop-killing rate is 90-99%.)
3 (Crop-killing rate is 70-89%.)
4 (Crop-killing rate is 90-99%.)

Please supply Phytotoxicity So for each of the following items, keeping them in order.
1. CCCNC(=O)c1nc2ocnc2cc1C(=O)Nc1c(CC)ccc(Cl)c1CC
2. Cc1c(Cl)cccc1NC(=O)c1nc2ccccc2nc1C(=O)NC1CCCC1
3. CCNC(=O)c1nc2c(cnn2C)cc1C(=O)Nc1c(CC)ccc(Cl)c1CC

Completion:
1: 5 (Crop-killing rate is 100%.); 2: 3 (Crop-killing rate is 70-89%.); 3: 4 (Crop-killing rate is 90-99%.)

Please supply Phytotoxicity So for each of the following items, keeping them in order.
1. CCc1ccc(Cl)c(CC)c1NC(=O)c1cc2ccccc2nc1C(=O)NCC(C)(C)C
2. CCc1ccc(Cl)c(CC)c1NC(=O)c1cc2cc3c(cc2nc1C(=O)NCC(C)C)OCO3
3. CCc1ccc(Cl)c(CC)c1NC(=O)c1nc2ccccc2nc1C(=O)NCC(C)C
4. CCCNC(=O)c1nc2c(cc1C(=O)Nc1cccc(Cl)c1C)COCC2
5. CCNC(=O)c1nc2occc2cc1C(=O)Nc1c(CC)ccc(Cl)c1CC
6. CCCNC(=O)c1cc2c(nc1C(=O)Nc1c(CC)ccc(Cl)c1CC)[S+]([O-])CC2 (stereo not drawn)

Completion:
["2 (Crop-killing rate is 40-69%.)", "1 (Crop-killing rate is 1-39%.)", "5 (Crop-killing rate is 100%.)", "3 (Crop-killing rate is 70-89%.)", "4 (Crop-killing rate is 90-99%.)", "4 (Crop-killing rate is 90-99%.)"]
